Biological target: Gal(b1-3)[GlcNAc(b1-6)]GalNAc
Assay: glycan array binding signal (z-score within array); higher = stronger binding
Conditions: glycan notation: IUPAC condensed, linker removed
Many of the other results were omitted from the sample, so the strongest signals are more common in it than they were.
Record form. Attribute: glycan array binding signal (z-score). Fill in for each entry.
Just the number, please, no unit after it.

### Prompt Can you share its glycan array binding signal (z-score)? I mean this binder: Hip/Pap (Homo sapiens), Q06141 (protein) MLPPMALPSVSWMLLSCLMLLSQVQGEEPQRELPSARIRCPKGSKAYGSHCYALFLSPKSWTDADLACQKRPSGNLVSVLSGAEGSFVSSLVKSIGNSYSYVWIGLHDPTQGTEPNGEGWEWSSSDVMNYFAWERNPSTISSPGHCASLSRSTAFLRWKDYNCNVRLPYVCKFTD
### Response -0.159

### Prompt Field entry: GSL-I (Griffonia simplicifolia) (protein) FNLPNFWSDVKDNIIFQGDANTTAGTLQLCKTNQYGNPLQYRAGRALYSDPVQLWDNKTGSVASFYTEFTFFLKITGDGPADGLAFFLAPPDSDVKDAGAYLGLFNKSTATQPSKNQVVAVEFDTWKNTDFPEPSYRHIGINVNSIVSVATKRWEDSDIFSGKIATARISYDGSAKILTVVLSYPDGADYILSHSVDLSKNLPNPIRVGISASTGANQFLTVYVLSWRFSSALQSTSVNAAMGPEIIRTVV
### Response -0.102

### Prompt Also need CLEC-1 (Homo sapiens), Q9NZH3 (protein) MQAKYSSTRDMLDDDGDTTMSLHSQASATTRHPEPRRTEHRAPSSTWRPVALTLLTLCLVLLIGLAAWGLLFFQYYQLSNTGQDTISQMEERLGNTSQELQSLQVQNIKLAGSLQHVAEKLCRELYNKAGAHRCSPCTEQWKWHGDNCYQFYKDSKSWEDCKYFCLSENSTMLKINKQEDLEFAASQSYSEFFYSYWTGLLRPDSGKAWLWMDGTPFTSELFHIIIDVTSPRSRDCVAILNGMIFSKDCKELKRCVCERRAGMVKPESLHVPPETLGEGD , thanks.
### Response -0.033

### Prompt Now this one: SP8524D-bot-399-27-399 (Bacteroides ovatus) (protein) DAKYDTLDTHAYIEEALSSTSQKVTVQATGESFTTLNVHLSNLSSTDNHYKLVTDQSVLDTYNHINGTGYIMLPKDYYTLPETITVKAGQYAADALSIALKAFSQEMMKSGESYALPVKLVLQDGSISPMENTGTFVILAESIIEFSAPMFVGAPSLKANKFTESPETYSQYTIEVRFQVANTADRDRAVFKNGGDDANFILLRFEDPQSDNENYKAHSLVQIVGRNRLYLNPSNSFKPNEWQHLALVCDGSNYRLYINGVDSGVLSIPTGATTFSDVNWFCLGDDSYSRWGNCKILMSEARIWSVVRSASQIQNNMTQVSPKSVGLEAYWRFNEGQGNVFEDATGKGHTLTTSATPTWIDGILSTDKSTEWK
### Response -0.01
